The measurements presented in this section are drawn from the supplement of paper PMC9170038.

# Tested on: MS2 coat protein
# Experimental Details: apparent KD of MS2 coat protein, switch ON state; designed switch direction (-1 OFF switch, 1 ON switch): -1; higher = weaker reporter binding
# Measurement Setup: FMN input: 0 or 200 uM; Eterna round: R93 (includes R88 designs)
Reported apparent KD of MS2 coat protein by item:

Residues	Value Unit	apparent KD of MS2 coat protein
AUAAAACAUGAGGAUCACCCAUGUAAGGAUAUGCGAAAAUAAAAUAAAAUAAAAUAAAGCAGAAGGUACAAAAA [Insulation 1]	µM	0.0291
GUGUACAGAGGAUAUACAUGAGCAUGGAAUCAUGCAGGAUCACAUGAGGAUCACCCAUGUAGAAGGCUGUACAC [LROPPY Exclusion 2 - v06_mod Brourd]	µM	0.0669
AGUAUGCGAGGAUAUACAUGAGGAUCACCCAUGUGAGAGAUAUGAGUGAGAAAGACAAGUAGAAGGCGCGUACA [JL Lego Mod 26]	µM	0.0998

====

# System: MS2 coat protein
# Experimental Details: apparent KD of MS2 coat protein; higher = weaker reporter binding
# Measurement Setup: Eterna round: R107; input ligand: theophylline 2 mM
Response key: rule met means apparent KD of MS2 coat protein >= 0.6 µM; rule not met means apparent KD of MS2 coat protein < 0.6 µM.

Residues	Label Class
AAAAGAGGUGGAAGGAGCGGGAGACAUGAGGAUCACCCAUGUGAAGUAACGAAAGGUACAGCCCAGGUAGGUCGCCAUGUCGAAA [qxqamullin]	rule not met
GGCCGAUGGUGCGAUACCAGCUUGAGUGUACUGGCCAGGUACAUGAGGAUCACCCAUGUAAGCCCUUGGCAGCGCGUCAAAGGCC [#1 Exclusion - Theophylline B Attempt #20 (HarryS)]	rule not met
UGAGAGGGCAGAAGGAGCGACAUGAGGAUCACCCAUGUCUCCCGUUAUGGGAGUUCUUUAGGUCAGGUAGGUCGCUGGCCUCUCA [#1 Exclusion - Arginine B Attempt #9 (Inspired by Omei)]	rule not met
CGGGUUAGGGCGGCCGCCACUGUGGCUACGGUACAUGAGGAUCACCCAUGUUUGUGGUUGAUCUACAGGACCGGGCCCUGACACG [Geusrean]	rule met

====

Reported apparent KD of MS2 coat protein by item:
# System: MS2 coat protein
# Experimental Details: apparent KD of MS2 coat protein, switch OFF state (with FMN for OFF switches, without FMN for ON switches); designed switch direction (-1 OFF switch, 1 ON switch): -1; higher = weaker reporter binding
# Measurement Setup: FMN input: 0 or 200 uM; Eterna round: R93 (includes R88 designs)

Residues	apparent KD of MS2 coat protein (nM)
AAGAAGAAAGGAUAUACAAGGAAGAAAGAAAAGAAAAGAAAACAUGAGGAUCACCCAUGUAGAAGGUUCUAGAA [EteRNA is fun!]	9.5
AAAAAGGCAGGAUAUACAUGAGGAUCACCCAUGUUAAAAAAAAAAAAAAAAAAAAAGUGUAGAAGGGCCAAAAA [Default title]	47.6
AAAAGGUGAGGAUAUAGGAAAAUAAAAGAAAAUAAAAGAAACUAGAAGGCACAUGAGGAUCACCCAUGUAAUAA [LROPPY Exclusion 4 - v03_deltaG=3.54 break up the As mixed]	23.6
ACCUGACAUGAGGAUCACCCAUGUGAGGAUAUGUACAUCAGGAAAAAAAAACUGAUGUACAGAAGGCACAAGGG [Amethyst 49]	38.7
CUCAAGUAAGGAUAUGAAAGAAAAGAAGAGAAAGAAAAGAAUCAGAAGGUACAUGAGGAUCACCCAUGUAAGAA [EteRNA is fun!]	23.1
AUAAAACAUGAGGAUCACCCAUGUAAGGAUAUGCGAAAAUAAAAUAAAAUAAAAUAAAGCAGAAGGUACAAAAA [Insulation 1]	37.3
ACGAAACAUGAGGAUCACCCAUGUCAGGAUAUGAACGAAAAUAAAUAAAAAUAAAAGUUCAGAAGGGACGACGA [66%, Wbt, 24]	53

====

# Tested on: K4 kissing-loop RNA reporter;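 also: bound reporter read as fluorescence of individual clusters on recovered sequencing chips by microscopy, with normalized cluster intensities fitted with a binding model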
# Experimental Details: apparent KD of K4 kissing-loop reporter; higher = weaker reporter binding
# Measurement Setup: Eterna round: R107; input ligand: theophylline 20 uM

Residues	apparent KD of K4 kissing-loop reporter (nM)
UCCGUUGCGGCGGCCGCCACUGACUUAUUGAUUAGGUUGCCAGUGAUGUUGGCCACCGGUCAAUACAGGACCGGGCCAUAGCGGG [Retive]	148
UUAGAAGUAUACUUCAAGAGGUAUGCUGAUACCAGAGUCAAUUGACUCCCUUGGCAGCGGAUCGAGUGAUGUUCGUAACCUCAUU [AK3.1 SS Theophylline A]	246
AGUGGACAUGUCUAGAGUGAUGUUCUGGAUACCAGACACGAAAGUGUCCCUUGGCAGCCGGAGUGAUGUUCUGGCGUUCACUAAA [Omei KL Theo A Exc B v7]	414

====

# Test system: MS2 coat protein
# Experimental Details: apparent KD of MS2 coat protein; higher = weaker reporter binding
# Measurement Setup: Eterna round: R107; input ligand: theophylline 2 mM
Response key: t means apparent KD of MS2 coat protein >= 30 nM; f means apparent KD of MS2 coat protein < 30 nM.

Residues	Label Class
AAUACAGCUACGGCCGCCACUUUAACUUGGUAUGGGUCCUUCACAAACAUGAGGAUCACCCAUGUAAGGACCGGGUAGCCUUGUU [theeternabot_exclusion_MS2_Trp_B_35]	f
CCCAGUCAUAACAAAGCAAAUAUACUCGAAGGAGCGUCAUAGUAGGCAGGUAGGUCGCGAGACAUGAGGAUCACCCAUGUAGAGA [zrzmullin]	t
UUUUACAUGAGGAUCACCCAUGUGCGGCGCCGAGGACCGGUACGGCCGCCACUCGCAUGGGCAUGCCGCGAUAUCAUUCCUGAAC [theeternabot_sameState_MS2_Trp_A_43]	t
GACCUUGCGGGCGCCCGCAAGGUUGCGGAUACCAGCGAGGUCCAUCGCCCUUGGCAGCCGAACAUGAGGAUCACCCAUGUCGGAC [Same State - Theophylline A Attempt #3 (HarryS)]	f
GAUAUGGAAACAUGUCAGAUCCUUACCGGUCGAGGACCGGUACGGCCGCCACUCGCAAAUAUUGUACAUGAGGAUCACCCAUGUA [Ex Tryptophan A 17]	f
CCCAACAUGAGGAUCACCCAUGUUCCGGGUCGAGGACCGGUACGGCCGCCACUCGGUAUGAUGGGUGUGCAGCGUAUCUGCACCA [theeternabot_sameState_MS2_Trp_A_22]	t
CAAUAAGUACCGGUCCUCAGAUCCUCAUGACGAGGACCGGUACGGCCGCCACUCGAAACAUGAGGAUCACCCAUGUAAUAAUAAU [Brourdmod01]	f
GAUAUAACAAAAGUUGUAUCAGUGGGUGAACGAGGACCGGUACGGCCGCCACUCGGACAUGAGGAUCACCCAUGUCCAUGUGAAA [AstrosExyTryA#18]	f
AAAAGUAGGUCCAAUAAAACUACAUGUGAAGGAGCGCGCGAAAGCGCAGGUAGGUCGCACAUGAGGAUCACCCAUGUCCUACAAA [MAT - Exclusion Arginine A - Mod of Eli - D6]	t
AGACGAGAAGAGGAUUACCCAUGUACAGAAGGAGCGUCGUUGACGACAGGUAGGUCGCUGAGAACAUGAGGAUCACCCAUGUUGA [Arg A Ex t1]	t
GGGCCCGGGCCGGAAACGGCCCGGGCCCUGCGAGGACCGGUACGGCCGCCACUCGCUCGAGUGGGUACAUGAGGAUCACCCAUGU [#17 Exclusion Tryptophan A]	t
UUCAGCUAGUCGGCCGCCACUACCUGAGGAUCACCCUGGUAAUCCUAACACUGCUUCGGCAGUGGUAGGACCGGGACUAGCUGAG	t
GAUUACAUGAGGAUCACCCAUGUAACUGAAGGAGCGGUAAUAAAGCCAGGUAGGUCGCAGAACAACAUGUGGUUCAUCCAUGUAA [#14 Exclusion - Arginine A]	f
GGUACAUGAGGAUCACCCAUGUAUGGGUACCGAGGACCGGUACGGCCGCCACUCGCAGGACAUGAGGAUCACCCAUGUGCAACCG [SSTA DOUBLE!!! :-D #11]	t
CCCACAAGCACGGCCGCCACUAUAUUAAUUACUGUCCUAGAACAUGAGGAUCACCCAUGUUAAUGUAGGACCGGGUGCGGGCCCG [theeternabot_exclusion_MS2_Trp_B_7]	f
GCUAGGUCUACGGCCGCCACUAGACGUGGGUAAGACAUGAGGAUCACCCAUGUACUACGGGCGCUUAGGACCGGGUAGACCUAGC [SSTB NP+V+V2 #17 +-Same Structure]	t
GCAUCCUAGUCGGCCGCCACUGCAACAUGAGGAUCACCCAUGUACUGCACAUGGGAAUGCAGUAGCAGGACCGGGACUAGGAUGC [(T1)-(M1)-(M2)-(T)''-(M)'-(T)'-(T2)_Design2_2/18/17]	t
AUGCAUGUCAGAAGGAGCGUCAGUAACAUGAGGAUCACCCAUGUAACAUUGAAUUCGAUGAGACAGGUAGGUCGCUGAAUAGUAA [JR_SSArginiB_Sub019]	t
AUAACAUGAGGAUCACCCAUGUAAGCUGAAGGAGCGCUGGAAACAGCAGGUAGGUCGCAGCGGCGACCUUCCUCAUGAAGGUCGC [(M1)-(M2)-(Arg1)-(Arg2)-(A)'-(M)'-(A)''_Design5]	f
ACAUGGGUCUGAAGGAGCGCGAUAACAUGAGGAUCACCCAUGUAAAAUGGAACAUGAUAAUCGCAGGUAGGUCGCAGUAAAACCC [Same State Arginine B GF 11]	t
AGCACUGUGACGGCCGCCACUACAUAACAUGGGUGGUCAGGUUCAUUACAUGAGGAUCACCCAUGUAGGACCGGGUCUCAGUGCA [Omei Trp Exc B A v11]	f
AUUCAUAACUGAAGGAGCGUGAUAUAAAUUUUUACAUGAGGAUCACCCAUGUUUCAUAGAUCACAGGUAGGUCGCAGAUUCUCAU [JR_SSArginiB_Sub011]	t
